Form field: pIC50 (one value per entry).
- System: MCF7
- TEST_NAME: Cytotoxicity against human MCF7 cells after 3 days by SRB assay
- Type: functional, cell-based
- EXPERIMENTAL_CONDITIONS: MCF7, 72 h
// pIC50: -log10(molar conc.)

COMPOUND: C/C(=C\c1csc(C)n1)[C@@H]1C/C=C\CCC[C@H](C)[C@H](O)[C@@H](C)C(=O)C(C)(C)[C@@H](O)CC(=O)O1 [EPOTHILONE C]
pIC50: 7.01

COMPOUND: C/C1=C/C[C@@H](/C(C)=C/c2csc(C)n2)OC(=O)C[C@H](O)C(C)(C)C(=O)[C@H](C)[C@@H](O)[C@@H](C)C(=O)CC1
pIC50: 6.30

COMPOUND: CC1=C/C[C@@H](/C(C)=C/c2csc(C)n2)OC(=O)C[C@H](O)C(C)(C)C(=O)[C@H](C)[C@@H](O)[C@@H](C)C\C=C\1
pIC50: 7.33

COMPOUND: CC1=C/C[C@@H](/C(C)=C/c2csc(C)n2)OC(=O)C[C@H](O)C(C)C(=O)[C@H](C)[C@@H](O)[C@@H](C)C\C=C\1 (stereo not given in full)
pIC50: 6.60

Query: # pIC50 lookup, item C/C1=C/C[C@@H](/C(C)=C/c2csc(C)n2)OC(=O)C[C@H](O)C(C)(C)C(=O)[C@H](C)[C@@H](O)[C@@H](C)CCC1 [EPOTHILONE D]
Result: 7.80
